In this section, each of the molecules is paired with its reported Ratio.
assay: Ratio is the compound /control(SH level in liver); type: functional, Mus musculus
# respond with the number and nothing more

Take a look at these entries with their results.
{"Molecule": "CC(=O)OC[C@@]1(O)C[C@@]23CCC4[C@H]5CCO[C@H]5CC[C@@]4(C)C2CCC1C3 (stereo not given in full)", "Value Type": "Ratio", "Result Number": 1.42}
{"Molecule": "CC1(O)C[C@@]23CCC4c5ccoc5CC[C@@]4(C)C2CCC1C3 (stereo not given in full)", "Value Type": "Ratio", "Result Number": 2.1}
{"Molecule": "C[C@@]12CCc3occc3C1CC[C@@]13CC(CCC12)C(O)(CO)C3 (stereo not given in full)", "Value Type": "Ratio", "Result Number": 2}
{"Molecule": "C[C@@]12CCC3=C(CCO3)C1CC[C@@]13CC(CCC12)[C@@](O)(CO)C3 (stereo not given in full)", "Value Type": "Ratio", "Result Number": 1.18}

# query: Ratio of entry C[C@@]12CCc3occc3C1CC[C@]13CCC(CCC12)C3 (stereo not given in full)
1.7

# query: Ratio of entry C[C@@]12C=Cc3occc3C1CC[C@]13CC(=O)C(CCC12)C3 (stereo not given in full)
1.3

# query: Ratio of entry C[C@@]12C=Cc3occc3C1CC[C@]13CCC(CCC12)C3 (stereo not given in full)
1.1

# query: Ratio of entry CC(=O)OC1C[C@@]23CCC4c5ccoc5CC[C@@]4(C)C2CCC1C3 (stereo not given in full)
1.8

# query: Ratio of entry C[C@@]12C=Cc3occc3C1CC[C@@]13CC(CCC12)C(O)(CO)C3 (stereo not given in full)
1.5

# query: Ratio of entry C[C@@]12CC[C@@H]3OCC[C@@H]3C1CC[C@@]13CC(CCC12)[C@@](O)(CO)C3 (stereo not given in full)
1.44
